# METHOD: Phase 1 open-label crossover drug-drug interaction study: rosiglitazone plasma pharmacokinetics without and with ethyl eicosapentaenoate
# EXPERIMENTAL CONTEXT: both, human, plasma, oral, 8 mg
READOUT NAME: half-life (h)
Kindly provide the numeric value in h only, without the unit symbol.

Reported half-life for CN(CCOc1ccc(CC2SC(=O)NC2=O)cc1)c1ccccn1 (stereo not shown) [Rosiglitazone, rosiglitazone] was 4.4

---

# METHOD: Phase 1 open-label crossover drug-drug interaction study: rosiglitazone plasma pharmacokinetics without and with ethyl eicosapentaenoate
# EXPERIMENTAL CONTEXT: both, human, plasma, oral, Cmax, rosiglitazone 8 mg with EPA 4 g; mean (SD)
READOUT NAME: Cmax (ng/mL)
Kindly provide the numeric value in ng/mL only, without the unit symbol.

Reported Cmax for CN(CCOc1ccc(CC2SC(=O)NC2=O)cc1)c1ccccn1 (stereo not shown) [Rosiglitazone, rosiglitazone] was 673

Reference for the values: patent US10966968B2
